The following binders are shown together with reported Kd values.
# Test target: T1, Human SIRPαV1 (NP_542970.1), Extracellular Domain + His-Tag (human, UniProt P78324 31-373)
# T1 construct: also called huSIRPαV1; hSIRPαV1; not shown: His-Tag
# T1 sequence (P78324 other isoform, or with tags, fused parts or gaps): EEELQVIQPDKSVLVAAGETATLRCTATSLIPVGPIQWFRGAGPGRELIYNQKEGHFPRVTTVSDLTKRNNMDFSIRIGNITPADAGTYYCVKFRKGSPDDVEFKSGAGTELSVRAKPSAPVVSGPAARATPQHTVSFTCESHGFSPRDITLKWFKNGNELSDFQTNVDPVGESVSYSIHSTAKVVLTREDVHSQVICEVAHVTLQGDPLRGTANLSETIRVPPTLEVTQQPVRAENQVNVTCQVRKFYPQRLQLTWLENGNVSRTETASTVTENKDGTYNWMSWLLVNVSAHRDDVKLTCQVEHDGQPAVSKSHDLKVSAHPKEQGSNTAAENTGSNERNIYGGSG
# Assay info: SPR, antibody captured on Protein A/G, ECD-His analyte, 1:1 fit
Respond with the bare value in nM.

Sample records with Kd:
Binder: Antibody E1 (antibody, human IgG1, kappa, L234A L235A, V domains shown) VH: QVQLQESGPGLVRPSETLSLTCTVSGGSIRNYYWSWIRQPPGKGLEWIGFIYYNGRTFYNPSLKSRVTISLDMSINQFSLKMTSVTAADTAVYYCARVRAYSGIGLDGTDVWGQGTTVTVSS VL: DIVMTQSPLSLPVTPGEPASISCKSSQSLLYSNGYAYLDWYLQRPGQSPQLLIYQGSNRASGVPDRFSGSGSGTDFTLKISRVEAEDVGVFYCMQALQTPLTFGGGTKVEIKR
Reading unit: nM
Kd: 0.72

Binder: Antibody E4 (antibody, human IgG1, kappa, L234A L235A, V domains shown) VH: QVQLQESGPGLVRPSETLSLTCTVSGGSIRNYYWSWIRQPPGKGLEWIGFIYYNGRTFYNPSLKSRVTISLDMSKNQFSLKMTSVTAADTAVYYCARVRAYSGIGLDGTDVWGQGTTVTVSS VL: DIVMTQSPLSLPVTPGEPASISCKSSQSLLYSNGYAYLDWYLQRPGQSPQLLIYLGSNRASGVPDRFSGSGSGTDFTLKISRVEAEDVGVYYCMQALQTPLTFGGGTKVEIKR
Reading unit: nM
Kd: 0.99

Kindly review the next binder as well.
Ask: Which value of Kd has been reported for Antibody E14 (antibody, human IgG1, kappa, L234A L235A, V domains shown) VH: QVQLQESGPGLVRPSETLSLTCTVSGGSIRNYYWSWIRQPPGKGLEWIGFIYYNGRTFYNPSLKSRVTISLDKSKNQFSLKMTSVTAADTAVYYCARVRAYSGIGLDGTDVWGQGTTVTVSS VL: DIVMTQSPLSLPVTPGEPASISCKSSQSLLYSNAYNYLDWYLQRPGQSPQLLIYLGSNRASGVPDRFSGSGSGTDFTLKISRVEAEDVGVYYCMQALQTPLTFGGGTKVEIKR in the records?
Result: 1.84
